B1: Storkhead-box protein 2, residues 64 to 141; numbered along this chain, Q9P2F5 (parent)
chain: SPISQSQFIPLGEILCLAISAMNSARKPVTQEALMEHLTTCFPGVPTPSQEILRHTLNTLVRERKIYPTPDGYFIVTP

variants of: B1; assay: abundance fitness (aPCA) (normalised: wild type 0, dead -1); higher = more abundant; growth selection in yeast, the domain comes from the species named; details: Homo sapiens
Each entry gets false (0) if its abundance fitness stays under -0.04, and true (1) if its abundance fitness is -0.04 or above.

Identify whether the reported abundance fitness of the following variant is -0.04 or greater: `A25H`
true (1)

In plain terms: is recorded abundance fitness at least -0.04 for `L34M` ?
false (0)

Item `S24I` with abundance fitness of -0.04 or above?
true (1)

Is the recorded value of abundance fitness equal to or greater than -0.04 for this variant? `R64Q`
false (0)

Answer whether abundance fitness of `P28K` is greater than or equal to -0.04.
false (0)

Threshold query (abundance fitness >= -0.04) on `L53I`
true (1)

Test whether the variant `Q31L` records abundance fitness of -0.04 or higher.
false (0)

Determine whether this variant has abundance fitness no lower than -0.04: `V76E`
true (1)

Quick check, abundance fitness >= -0.04? `S20V`
false (0)

Is the recorded value of abundance fitness equal to or greater than -0.04 for this variant? `T30P`
false (0)

Does `Q7S` have a reported abundance fitness of at least -0.04?
true (1)
